- ASSAY_SYSTEM: human CD33 R202A (human, UniProt P20138 18-364)
- Sequence (P20138 18-364 R202A limits assumed): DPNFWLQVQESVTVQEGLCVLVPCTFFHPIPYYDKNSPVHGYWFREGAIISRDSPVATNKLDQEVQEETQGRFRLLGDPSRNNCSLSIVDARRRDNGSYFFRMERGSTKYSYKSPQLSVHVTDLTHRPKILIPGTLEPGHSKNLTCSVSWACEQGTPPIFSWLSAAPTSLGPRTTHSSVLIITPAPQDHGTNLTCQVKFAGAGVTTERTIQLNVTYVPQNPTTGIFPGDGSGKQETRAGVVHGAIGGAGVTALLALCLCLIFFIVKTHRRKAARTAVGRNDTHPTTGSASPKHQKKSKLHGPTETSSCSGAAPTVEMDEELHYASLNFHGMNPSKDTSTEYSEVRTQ
- EXPERIMENT_NOTES: alanine scan, flow cytometry, HEK293-T;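 also: antibody binding to each alanine-substituted CD33 mutant expressed transiently in HEK293-T, read as fluorescence minus background, mean of duplicates, relative to wild-type CD33 set as 100%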
Mean % WT Binding overview

BINDER: Refmab #3 (antibody, V domains shown, In the alanine scan antibodies were used as IgG or Fab) VH: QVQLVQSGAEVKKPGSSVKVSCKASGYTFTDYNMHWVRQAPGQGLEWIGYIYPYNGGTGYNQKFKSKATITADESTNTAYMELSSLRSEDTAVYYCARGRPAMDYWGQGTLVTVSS VL: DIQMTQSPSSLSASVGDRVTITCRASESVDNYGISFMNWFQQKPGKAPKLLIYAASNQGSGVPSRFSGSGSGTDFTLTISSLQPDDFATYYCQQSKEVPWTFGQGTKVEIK
Mean % WT Binding: 128%

BINDER: Refmab #1 (antibody, V domains shown, In the alanine scan antibodies were used as IgG or Fab; also called hP67.6) VH: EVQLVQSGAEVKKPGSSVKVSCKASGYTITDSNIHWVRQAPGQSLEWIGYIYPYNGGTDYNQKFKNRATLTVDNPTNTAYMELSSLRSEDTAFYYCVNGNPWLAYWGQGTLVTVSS VL: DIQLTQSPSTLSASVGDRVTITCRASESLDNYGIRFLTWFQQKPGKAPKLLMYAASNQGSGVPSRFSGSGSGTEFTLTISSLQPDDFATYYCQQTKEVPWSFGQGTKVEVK
Mean % WT Binding: 86.7%

BINDER: Refmab #4 (antibody, V domains shown, In the alanine scan antibodies were used as IgG or Fab) VH: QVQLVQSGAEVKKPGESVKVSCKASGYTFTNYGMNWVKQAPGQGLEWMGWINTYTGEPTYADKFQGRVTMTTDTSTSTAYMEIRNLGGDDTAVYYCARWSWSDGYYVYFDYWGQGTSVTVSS VL: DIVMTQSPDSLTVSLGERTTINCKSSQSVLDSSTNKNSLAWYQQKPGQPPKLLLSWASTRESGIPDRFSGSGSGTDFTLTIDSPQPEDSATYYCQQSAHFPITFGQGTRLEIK
Mean % WT Binding: 88.7%

// next item, Mean % WT Binding requested
// query Mean % WT Binding value for entry Refmab #2 (antibody, V domains shown, In the alanine scan antibodies were used as IgG or Fab) VH: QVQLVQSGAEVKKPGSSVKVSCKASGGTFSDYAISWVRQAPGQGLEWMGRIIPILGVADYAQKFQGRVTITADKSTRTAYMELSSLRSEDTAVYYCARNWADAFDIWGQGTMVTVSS VL: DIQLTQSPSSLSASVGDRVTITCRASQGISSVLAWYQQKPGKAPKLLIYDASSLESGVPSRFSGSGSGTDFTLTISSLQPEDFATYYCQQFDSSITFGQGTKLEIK
112%
